Test: Caco-2 membrane permeability, improved method as used in the following Examples (96-well, 20 to 24 h preincubation)
Format: in vitro ADME
Settings: human, Caco-2, Caco-2 (cm/sec)
Positions of bridges follow the written chain, without caps; N, C: chain ends. Non-standard residues stand in square brackets, D forms with d. Residues, ends and D or L forms follow the SMILES beside them. *: point of attachment. Phe(4-CF3) = N[C@@H](Cc1ccc(C(F)(F)F)cc1)C(=O)O; Tyr(3-F) = N[C@@H](Cc1ccc(O)c(F)c1)C(=O)O; NMeF = CN[C@@H](Cc1ccccc1)C(=O)O; NMeI = CC[C@H](C)[C@H](NC)C(=O)O; NMeL = CN[C@@H](CC(C)C)C(=O)O; NMeA = CN[C@@H](C)C(=O)O; Piperidide = C1CCN(*)CC1; Sar = CNCC(=O)O
Measured Papp A→B at 180 min values are reported for all entries that follow.
State just the number; it will be interpreted in ×10⁻⁶ cm/s.

CC(C)C[C@H]1C(=O)N[C@H](C(=O)N2CCCCC2)CC(=O)N(C)[C@@H](C)C(=O)N[C@@H](Cc2ccc(O)c(F)c2)C(=O)N(C)[C@@H](CC(C)C)C(=O)N(C)[C@@H](CC(C)C)C(=O)N[C@@H](C(C)C)C(=O)N(C)[C@@H](Cc2ccccc2)C(=O)N(C)[C@@H](CC(C)C)C(=O)N[C@@H]([C@@H](C)O)C(=O)N(C)CC(=O)N1C [pd122] ([NMeA][Tyr(3-F)][NMeL][NMeL]V[NMeF][NMeL]T[Sar][NMeL]D-Piperidide; lactam N-11)    0.46

Turning now to a further molecule:
Lab book: Papp A→B at 180 min of CC[C@H](C)[C@H]1C(=O)N[C@@H]([C@@H](C)O)C(=O)N(C)CC(=O)N(C)[C@@H](CC(C)C)C(=O)N[C@H](C(=O)N2CCCCC2)CC(=O)N(C)[C@@H](C)C(=O)N[C@@H](CC(C)C)C(=O)N(C)[C@@H](CC(C)C)C(=O)N(C)[C@@H](CC(C)C)C(=O)N[C@@H](Cc2ccc(C(F)(F)F)cc2)C(=O)N(C)[C@@H](C)C(=O)N1C [pd142] ([NMeA]L[NMeL][NMeL][Phe(4-CF3)][NMeA][NMeI]T[Sar][NMeL]D-Piperidide; lactam N-11) noted as 2.9
